target: human muscarinic acetylcholine M3 receptor (M3-ACh) (Homo sapiens); assay: M3 Receptor Activity Assay: competition binding of [3H]N-methyl scopolamine, SPA format
Sequence (P20309 whole entry): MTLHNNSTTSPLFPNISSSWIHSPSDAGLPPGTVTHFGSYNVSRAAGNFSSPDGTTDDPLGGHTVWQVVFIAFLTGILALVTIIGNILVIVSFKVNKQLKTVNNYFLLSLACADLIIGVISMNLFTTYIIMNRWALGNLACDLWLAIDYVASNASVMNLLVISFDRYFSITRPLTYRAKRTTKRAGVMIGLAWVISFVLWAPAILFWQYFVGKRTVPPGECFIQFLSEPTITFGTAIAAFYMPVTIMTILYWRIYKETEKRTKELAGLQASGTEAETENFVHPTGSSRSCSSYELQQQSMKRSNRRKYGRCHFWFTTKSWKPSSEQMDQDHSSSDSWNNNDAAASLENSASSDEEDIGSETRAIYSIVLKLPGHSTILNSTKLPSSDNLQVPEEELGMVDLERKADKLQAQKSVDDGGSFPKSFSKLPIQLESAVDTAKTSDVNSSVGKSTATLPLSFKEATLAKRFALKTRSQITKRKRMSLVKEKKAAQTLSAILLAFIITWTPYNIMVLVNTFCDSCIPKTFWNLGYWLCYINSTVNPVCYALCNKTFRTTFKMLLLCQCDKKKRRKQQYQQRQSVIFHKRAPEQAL

[
  {
    "molecule": "CC(C(=O)OC1CC[N+](C)(C)CC1)(c1ccccc1)C1CC1 (stereo not shown)",
    "IC50 / nM": 0.398
  }
]
